biological target: GST-TAX IP2 PDZ domain 1 [GST: P08515]; assay: G assay titration, PDZ 5 ug/ml
Sequence (P08515 whole entry, the tested form may be a part): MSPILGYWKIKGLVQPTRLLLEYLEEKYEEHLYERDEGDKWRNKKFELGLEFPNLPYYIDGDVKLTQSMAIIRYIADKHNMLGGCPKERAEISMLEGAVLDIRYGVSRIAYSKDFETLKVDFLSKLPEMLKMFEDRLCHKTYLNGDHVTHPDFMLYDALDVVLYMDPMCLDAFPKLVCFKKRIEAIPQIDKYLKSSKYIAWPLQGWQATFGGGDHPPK
measured.property: Kd
The reply must contain the numeric value and, after it, the unit.

**Q:** Entry under review: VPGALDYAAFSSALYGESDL (modifications not checked) [a-actinin 2] . Reported Kd?
**A:** 2.5 µM
